Origin of values: paper PMC9482650

Consider the following binders; for each one, report its pKd.
- Assayed target: MAGI2_2, Q86UL8
- Sequence (Q86UL8 410-522): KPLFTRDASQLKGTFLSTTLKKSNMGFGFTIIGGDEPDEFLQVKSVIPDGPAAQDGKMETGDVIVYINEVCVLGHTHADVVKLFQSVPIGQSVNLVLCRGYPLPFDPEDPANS
- Assay explanation: holdup assay
- Set-up: key: below the threshold = too weak to quantify, mostly under pKd 3.1 to 4
- Conditions: plain residues with an end cap or a label only (N-terminal biotin on a linker: ado-ado)
Numbers only.

Binder	pKd
YAEKRMLTEV [KCNA6, P17658]	4.33

Would you be so kind as to report pKd for each listed record?
1. NKSEPFLTWL [WWTR1, Q9GZV5]
2. QKNKDREYYV [NRXN3, Q9HDB5]
3. TNSKQGETTV [FZD1, Q9UP38]

[out]
1: 3.57; 2: 4.32; 3: 4.38
